# Measured on: hGIPR (Homo sapiens, UniProt P48546)
# Construct: expressed in transfected cells; host or cells: CHO cells carrying a CRE-luciferase reporter gene
# Sequence (P48546 22-466): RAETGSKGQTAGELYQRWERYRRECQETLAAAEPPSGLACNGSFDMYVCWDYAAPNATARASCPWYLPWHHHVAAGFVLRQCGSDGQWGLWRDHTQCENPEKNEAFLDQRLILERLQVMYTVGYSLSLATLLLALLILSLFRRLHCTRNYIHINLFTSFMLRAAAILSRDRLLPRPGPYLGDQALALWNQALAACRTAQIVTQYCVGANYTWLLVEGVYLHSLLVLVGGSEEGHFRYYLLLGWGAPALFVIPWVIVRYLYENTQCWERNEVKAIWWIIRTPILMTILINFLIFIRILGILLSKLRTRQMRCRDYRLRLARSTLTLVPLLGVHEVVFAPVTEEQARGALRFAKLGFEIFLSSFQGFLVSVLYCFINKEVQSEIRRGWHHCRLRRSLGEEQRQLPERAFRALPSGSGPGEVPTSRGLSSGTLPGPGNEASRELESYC
# Measurement protocol: hGIPR CreLuc reporter gene assay in 0.5% and 100% plasma
# Type: cell-based
# Cond: hGIPR 100% hP, CreLuc reporter gene assay, 100% human plasma
Starred links: 1 amine or outer side, 2 acyl side, 3 side chain; linkers in the order of their positions; H or OH if unused. Non-standard residues stand in square brackets, D forms with d. Groups on a side chain read outwards from the residue. *: point of attachment. C20 diacid = O=C(O)CCCCCCCCCCCCCCCCCCC(=O)*; γGlu = O=C(O)[C@H](CCC(=O)[*:2])N[*:1]; εLys = N[C@@H](CCCCN[*:1])C(=O)[*:2]; Aib = CC(C)(N)C(=O)O
Reported endpoint: pEC50
As a rule, pEC50 stands for the negative log10 of the concentration, concentration in M.

May I ask what pEC50 has been recorded for H-Y[Aib]EGTFTSDLSI[Aib]LEKQAQ[Aib]AFVEWLIK([εLys-γGlu-γGlu-γGlu-γGlu-γGlu-γGlu-C20 diacid])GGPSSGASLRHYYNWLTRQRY-NH2 [Compound 172] ?
8.74
